pIC50: −log10 of the molar value.
QUANTITY: pIC50

// fetch C-C chemokine receptor type 1 (Homo sapiens) pIC50 for CCCCC1C(=O)N(C[C@H]2CC[C@H](OCC)CC2)CCC12CCN(C1(C)CCN(C(=O)c3c(C)ncnc3C)CC1)CC2 (stereo partly specified) < 4.30

----------
assay: Metabolic stability in human liver microsomes assessed as clearance; assay type: ADME, Microsome
Classify: fulfilled when microsomal CLint is strictly less than 60 µL/min/mg; not fulfilled when microsomal CLint is not.

Criterion: microsomal CLint strictly below 60 µL/min/mg. Is it met by CCCCC1CN(S(C)(=O)=O)CCC12CCN(C1(C)CCN(C(=O)c3c(C)ncnc3C)CC1)CC2 (stereo not drawn) ? fulfilled

Determine if CCCCC1CN(S(=O)(=O)c2cn(C)cn2)CCC12CCN(C1(C)CCN(C(=O)c3c(C)ncnc3C)CC1)CC2 (stereo not drawn) shows microsomal CLint strictly lower than 60 µL/min/mg. not fulfilled

Dear colleague, could you confirm whether microsomal CLint of CCCCC1CN(S(=O)(=O)c2ccccc2)CCC12CCN(C1(C)CCN(C(=O)c3c(C)ncnc3C)CC1)CC2 (stereo not drawn) falls below 60 µL/min/mg? Thanks. not fulfilled

Is 60 µL/min/mg strictly greater than the compound's reported microsomal CLint? compound: CCCCC1CN(S(=O)(=O)c2ccccn2)CCC12CCN(C1(C)CCN(C(=O)c3c(C)ncnc3C)CC1)CC2 (stereo not drawn) not fulfilled

Take the compound CCCC[C@H]1CN(S(=O)(=O)CC(F)(F)F)CCC12CCN(C1(C)CCN(C(=O)c3c(C)ncnc3C)CC1)CC2 and say whether its microsomal CLint is less than 60 µL/min/mg. fulfilled

Given the entry CCCCC1CN(S(=O)(=O)C2CC2)CCC12CCN(C1(C)CCN(C(=O)c3c(C)ncnc3C)CC1)CC2 (stereo not drawn) , would its reported microsomal CLint be below 60 µL/min/mg? not fulfilled

# check: microsomal CLint < 60 µL/min/mg for CCCCC1CN(S(=O)(=O)N2CCOCC2)CCC12CCN(C1(C)CCN(C(=O)c3c(C)ncnc3C)CC1)CC2 (stereo not drawn) not fulfilled
